Parameter: pKd. Scope: all listed entries.
testedSystem: T1, human MSLN-hFc recombinant protein (human, UniProt Q13421 296-580)
T1 construct: Captured by an anti-human IgG antibody on the chip; also called human MSLN protein; Acro MSN-H5253
T1 sequence (Q13421 other isoform, or with tags, fused parts or gaps): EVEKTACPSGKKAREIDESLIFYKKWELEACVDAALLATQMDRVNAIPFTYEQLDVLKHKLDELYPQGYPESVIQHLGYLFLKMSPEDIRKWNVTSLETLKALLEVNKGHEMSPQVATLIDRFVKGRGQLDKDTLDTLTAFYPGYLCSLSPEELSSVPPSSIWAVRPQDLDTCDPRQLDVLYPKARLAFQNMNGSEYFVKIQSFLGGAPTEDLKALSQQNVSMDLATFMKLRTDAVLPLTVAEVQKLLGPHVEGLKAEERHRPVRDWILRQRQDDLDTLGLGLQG
experimentSummary: SPR (Biacore 8K), MSLN-hFc captured, antibody injected
// pKd here means minus log10 of the molar concentration (mol/L)

F7.33.24-H8 (scFv, not shown: small tags and cut ends, also called S009-F7.33.24 humanized antibody VH2 + VL2) scFv: EVQLVQSGAEVKKPGASVKVSCKASGYTFTSYWMHWVRQAPGQGLEWMGNVNPSNGGSNYNEKFKNRVTITVDKSASTAYMELSSLRSEDTAVYYCAPHYIGSRPGFAYWGQGTLVTVSSGGGGSGGGGSGGGGSDIVMTQTPLSLSVTPGQPASISCKASQNVGTNIAWYLQKPGQSPQALIYSASYRYSGVPDRFSGSGSGTDFTLKISRVEAEDVGVYYCQQYNSYPLTFGGGTKVEIK	8.88

Note pKd for the binder shown: F2.39.3-H2 (scFv, not shown: small tags and cut ends, also called S009-F2.39.3 humanized antibody VH1 + VL2) scFv: EVQLVQSGAEVKKPGASVKVSCKASGYTFTNYWMHWVRQAPGQGLEWMGNINPSSGDSYYNERFMSRVTMTVDKSTSTVYMELSSLRSEDTAVYYCARSGGLWLAFWGQGTLVTVSSGGGGSGGGGSGGGGSDIVMTQSPDSLAVSLGERATINCKSSQTLLNSVSQNNYLAWYQQKPGQSPTLLIYFASTRESGVPDRFSGSGSGTDFTLTISSLQAEDVAVYYCQQHYRTPYTFGGGTKVEIK
9.01

Note pKd for the binder shown: F2.23.12-H13 (scFv, not shown: small tags and cut ends, also called S009-F2.23.12 humanized antibody VH4 + VL1) scFv: EVQLVQSGAEVKKPGASVKVSCKASGYTFTNYWMHWVRQAPGQGLEWMGNINPSQGGPYYNERFRSRVTMTVDKSTSTAYMELSSLRSEDTAVYYCARPYYGSSYGYFDYWGQGTTVTVSSGGGGSGGGGSGGGGSDIQMTQSPSSLSASVGDRVTITCKASQDINKYIAWYQQKPGKAPKLLIHYTSELQPGVPSRFSGSGSGTDFTFTISSLQPEDIATYYCLQYANPLRTFGGGTKVEIK
7.51

Note pKd for the binder shown: F7.33.24-H2 (scFv, not shown: small tags and cut ends, also called S009-F7.33.24 humanized antibody VH1 + VL2) scFv: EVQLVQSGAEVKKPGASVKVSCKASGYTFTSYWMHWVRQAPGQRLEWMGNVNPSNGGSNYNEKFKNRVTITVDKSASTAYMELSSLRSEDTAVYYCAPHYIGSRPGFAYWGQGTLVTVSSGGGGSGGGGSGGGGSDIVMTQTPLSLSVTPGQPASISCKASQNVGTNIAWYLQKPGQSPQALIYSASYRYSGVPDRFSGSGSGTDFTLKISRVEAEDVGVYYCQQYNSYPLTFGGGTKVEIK
8.74

Note pKd for the binder shown: F7.44.20-H16 (scFv, not shown: small tags and cut ends, also called S009-F7.44.20 humanized antibody VH2a + VL4) scFv: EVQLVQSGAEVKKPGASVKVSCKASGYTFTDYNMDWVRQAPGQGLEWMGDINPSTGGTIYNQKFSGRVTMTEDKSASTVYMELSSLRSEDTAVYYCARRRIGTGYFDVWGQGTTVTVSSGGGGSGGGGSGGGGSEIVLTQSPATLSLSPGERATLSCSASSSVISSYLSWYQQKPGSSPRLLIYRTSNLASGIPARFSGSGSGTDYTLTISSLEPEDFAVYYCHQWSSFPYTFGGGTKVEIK
8.73

Note pKd for the binder shown: F7.33.24-H5 (scFv, not shown: small tags and cut ends, also called S009-F7.33.24 humanized antibody VH1a + VL2) scFv: EVQLVQSGAEVKKPGASVKVSCKASGYTFTSYWMHWVRQAPGQRLEWMGNVNPSSGGSNYNEKFKNRVTITVDKSASTAYMELSSLRSEDTAVYYCAPHYIGSRPGFAYWGQGTLVTVSSGGGGSGGGGSGGGGSDIVMTQTPLSLSVTPGQPASISCKASQNVGTNIAWYLQKPGQSPQALIYSASYRYSGVPDRFSGSGSGTDFTLKISRVEAEDVGVYYCQQYNSYPLTFGGGTKVEIK
8.97

Note pKd for the binder shown: F7.44.20-H5 (scFv, not shown: small tags and cut ends, also called S009-F7.44.20 humanized antibody VH1a + VL1) scFv: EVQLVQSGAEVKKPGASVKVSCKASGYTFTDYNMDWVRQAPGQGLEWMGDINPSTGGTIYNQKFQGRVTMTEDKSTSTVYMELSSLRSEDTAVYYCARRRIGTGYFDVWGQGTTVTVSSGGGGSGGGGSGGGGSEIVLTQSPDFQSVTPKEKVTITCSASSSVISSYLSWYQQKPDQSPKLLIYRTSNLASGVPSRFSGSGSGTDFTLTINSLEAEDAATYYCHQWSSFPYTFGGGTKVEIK
9.15
